# credit: ChEMBL document CHEMBL4715854

# experiment: Half-life in C57BL/6 mouse at 0.5 mg/kg, iv measured up to 24 hrs by LC-MS/MS analysis
# Format: ADME, organism-based
# testParameters: in vivo
measurementName: half-life (min)
# unit: min | format: bare number

response.value for CC(C)Oc1cc(NC(=O)N2CCCc3cc(CN4CCCC4=O)c(C=O)nc32)ncc1C#N (field: half-life) = 312

----------
# experiment: Apparent permeability of compound across apical to basolateral side in human Caco2 cells at 10 mM incubated for 120 mins by lucifer yellow based LC/MS/MS analysis
# Type: ADME, cell-based
# testParameters: Caco-2
measurementName: Papp A→B at 2 h, 10000 µM (×10⁻⁶ cm/s)
# unit: ×10⁻⁶ cm/s | format: bare number

response.value for COCCOc1cc(NC(=O)N2CCCc3cc(CN4CCN(C)CC4=O)c(C=O)nc32)ncc1C#N (field: Papp A→B at 2 h, 10000 µM) = 7.4
